B1: library; a variant is named by its letters at N, in order (parent)
chain: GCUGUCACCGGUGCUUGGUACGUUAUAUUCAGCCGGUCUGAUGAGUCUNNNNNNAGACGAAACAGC

Variants of: B1
Assay: FACS-Seq fitted mean relative fluorescence mCherry/BFP with ligand (log10 relative fluorescence); HEK293T overexpressing SLC46A1; ligand concentration (+) FACS-Seq: 6 mM; higher = higher reporter protein expression
Conditions: with (6R,S)-folinic acid; ligand present: yes
Please note: Fulfilled applies when FACS-Seq fitted mean (log10) is 0.4 or greater, and Not fulfilled applies otherwise.

> print(dat)
    variant.spec    label.value
 1        UUCAUG      Fulfilled
 2        ACAAAG      Fulfilled
 3        UGUGAG      Fulfilled
 4        UAAGCA  Not fulfilled
 5        CCACAA      Fulfilled
 6        UUAUGA  Not fulfilled
 7        AAUGAG      Fulfilled
 8        CUAGGU      Fulfilled
 9        GUGGUG  Not fulfilled
10        AAUAGU      Fulfilled
11        GUGGCC      Fulfilled
